Test: Tissue chip liver compartment: viability of HepG2/C3A cells in collagen
Format: cell-based, human
Details: human

| compound | measurement.units | viability at 5 days, 50 μM |
| --- | --- | --- |
| O=c1[nH]cc(F)c(=O)[nH]1 [5-FU, 5-fluorouracil] | % | 20 |
